// reported protein stability index per item
B1: RPS21 (parent)
chain: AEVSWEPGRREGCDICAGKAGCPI

variants of: B1; assay: protein stability index of a GFP-peptide fusion (GPS, HEK-293T) (PSI 1-6); higher = more stable; conditions: c terminus: a fixed tail appended;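 further: lentivirally expressed fusions sorted by FACS into six bins by GFP to DsRed ratio, PSI derived from sequencing read proportions per bin multiplied by bin number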
Please state the value as a number alone, without comment.

protein stability index measured on S4L = 3.81

protein stability index measured on E2H = 2.02

protein stability index measured on G12V = 2.63
